assayedTarget: STING (Homo sapiens, UniProt Q86WV6, G230A/H232R/R293Q/R71H)
Sequence (Q86WV6 whole entry R71H/G230A/H232R/R293Q): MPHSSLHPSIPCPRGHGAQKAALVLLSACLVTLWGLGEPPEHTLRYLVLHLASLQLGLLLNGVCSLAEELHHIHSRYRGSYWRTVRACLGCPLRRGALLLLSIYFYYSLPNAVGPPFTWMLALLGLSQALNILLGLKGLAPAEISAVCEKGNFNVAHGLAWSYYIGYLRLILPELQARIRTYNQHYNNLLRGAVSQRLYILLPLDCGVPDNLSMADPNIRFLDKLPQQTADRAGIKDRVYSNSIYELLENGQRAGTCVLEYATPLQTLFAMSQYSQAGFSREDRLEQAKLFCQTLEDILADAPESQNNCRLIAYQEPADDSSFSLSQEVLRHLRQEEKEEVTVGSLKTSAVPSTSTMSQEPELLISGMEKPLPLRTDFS
methodDescription: STING reporter assay: luciferase reporter activity in THP1-Dual KO-IFNAR2 cells stimulated with 2'3'cGAMP
reportedConditions: 2′3′cGAMP 15 μM final, 24h, read-out: hSTING: EC50
Recorded measurements of EC50, one per entry
readoutType: EC50

>  <molecule>
COc1ncc(NC(=O)C(=O)Nc2c[nH]c3cc(F)c(F)cc23)cc1C(F)(F)F

>  <result>
1000 to 5000 nM

$$$$
>  <molecule>
Cc1cnc(CNC(=O)C(=O)Nc2c[nH]c3cc(F)c(F)cc23)cc1C(F)(F)F

>  <result>
200 to 1000 nM

$$$$
>  <molecule>
COc1ccc(CNC(=O)C(=O)Nc2c[nH]c3cc(F)c(F)cc23)cc1Cl

>  <result>
200 to 1000 nM

$$$$
>  <molecule>
CC1(CNC(=O)C(=O)Nc2c[nH]c3cc(F)c(F)cc23)CCC(F)(F)CC1

>  <result>
1000 to 5000 nM

$$$$
>  <molecule>
O=C(Nc1c[nH]c2cc(F)c(F)cc12)C(=O)NC1CCC(Oc2ccc(C(F)(F)F)nc2)CC1 (centres unmarked)

>  <result>
40 to 200 nM

$$$$
>  <molecule>
O=C(NCCCOc1ccc(C(F)(F)F)nc1)C(=O)Nc1c[nH]c2cc(F)c(F)cc12

>  <result>
200 to 1000 nM

$$$$
>  <molecule>
O=C(Nc1c[nH]c2cc(F)c(F)cc12)C(=O)NC1CCC2(CCCCC2)C1 (centres unmarked) [Compound 280]

>  <result>
200 to 1000 nM

$$$$
>  <molecule>
O=C(Nc1c[nH]c2cc(F)c(F)cc12)C(=O)NC1CCN(c2ccccc2)C1 (centres unmarked)

>  <result>
200 to 1000 nM

$$$$

###

assayedTarget: STING (Homo sapiens, UniProt Q86WV6, G230A/H232R/R293Q/R71H)
methodDescription: STING reporter assay: luciferase reporter activity in THP1-Dual KO-IFNAR2 cells stimulated with 2'3'cGAMP
reportedConditions: 2′3′cGAMP 15 μM final, 24h, read-out: hSTING: EC50

>  <compound>
O=C(Nc1c[nH]c2cc(F)c(F)cc12)C(=O)N[C@H]1C[C@H](Oc2ccc(C(F)(F)F)cn2)C1

>  <EC50>
200 to 1000 nM

$$$$
>  <compound>
O=C(Nc1cnc(-n2nccn2)c(C(F)(F)F)c1)C(=O)Nc1c[nH]c2cc(F)c(F)cc12

>  <EC50>
1000 to 5000 nM

$$$$
>  <compound>
N#Cc1cc(NC(=O)C(=O)Nc2c[nH]c3cc(F)c(F)cc23)ccc1N1CCCC1

>  <EC50>
200 to 1000 nM

$$$$
>  <compound>
N#Cc1cc(NC(=O)C(=O)Nc2c[nH]c3cc(F)c(F)cc23)cnc1N1CCCC1

>  <EC50>
200 to 1000 nM

$$$$
>  <compound>
O=C(NCCOC1CCCC1)C(=O)Nc1c[nH]c2cc(F)c(F)cc12

>  <EC50>
200 to 1000 nM

$$$$
>  <compound>
O=C(Nc1c[nH]c2cc(F)c(F)cc12)C(=O)N1CCC2(CCCCC2)CC1

>  <EC50>
1000 to 5000 nM

$$$$
>  <compound>
O=C(Nc1c[nH]c2cc(F)c(F)cc12)C(=O)N[C@@H]1CCC[C@H](Oc2ccc(C(F)(F)F)cc2)C1 (single isomer, unassigned)

>  <EC50>
200 to 1000 nM

$$$$
>  <compound>
O=C(NCC12CC3CC(CC(C3)C1)C2)C(=O)Nc1c[nH]c2cc(F)c(F)cc12

>  <EC50>
1000 to 5000 nM

$$$$
>  <compound>
O=C(NCC(c1ccccc1)C(F)F)C(=O)Nc1c[nH]c2cc(F)c(F)cc12 (centres unmarked) [Compound 139]

>  <EC50>
200 to 1000 nM

$$$$
>  <compound>
O=C(Nc1cccc(C(F)(F)F)c1)C(=O)Nc1c[nH]c2cc(F)c(F)cc12

>  <EC50>
200 to 1000 nM

$$$$
>  <compound>
O=C(NCC(=O)N1CCc2cccnc21)C(=O)Nc1c[nH]c2cc(F)c(F)cc12

>  <EC50>
200 to 1000 nM

$$$$
>  <compound>
CCC1CCC(NC(=O)C(=O)Nc2c[nH]c3cc(F)c(F)cc23)CC1 (centres unmarked)

>  <EC50>
200 to 1000 nM

$$$$
>  <compound>
O=C(Nc1cnc2c(c1)CCC2)C(=O)Nc1c[nH]c2cc(F)c(F)cc12

>  <EC50>
1000 to 5000 nM

$$$$
>  <compound>
O=C(Nc1c[nH]c2cc(F)c(F)cc12)C(=O)NC1CCC(O)(C(F)(F)F)CC1 (centres unmarked)

>  <EC50>
5000 to 100000 nM

$$$$
